assayContext: in m-xylene, 293 K
endpoint: solubility (mole fraction)
Numbers only.

Query :: Look at this compound and give its reported solubility (mole fraction). c1cc2c3c(cccc3c1)CC2
Result :: 0.143

###

assayContext: in isobutanol, 323 K
endpoint: solubility (mole fraction)
Answers are plain numbers.

Query :: Look at this compound and give its reported solubility (mole fraction). c1cc2c3c(cccc3c1)CC2
Result :: 0.0565

###

assayContext: in benzene, 298 K
endpoint: solubility (mole fraction)
One number for each entry.

Query :: Look at this molecule and give its reported solubility (mole fraction). c1cc2c3c(cccc3c1)CC2
Result :: 0.162

###

assayContext: in acetone, 293 K
endpoint: solubility (mole fraction)
Numbers only.

Query :: Look at this compound and give its reported solubility (mole fraction). c1cc2c3c(cccc3c1)CC2
Result :: 0.0587

###

assayContext: in benzene, 308.3 K
endpoint: solubility (mole fraction)

Query :: Look at this molecule and give its reported solubility (mole fraction). c1cc2c3c(cccc3c1)CC2
Result :: 0.215

###

assayContext: in benzene, 283 K
endpoint: solubility (mole fraction)

Query :: Look at this compound and give its reported solubility (mole fraction). c1cc2c3c(cccc3c1)CC2
Result :: 0.118

###

assayContext: in m-xylene, 308.2 K
endpoint: solubility (mole fraction)

Query :: Look at this molecule and give its reported solubility (mole fraction). c1cc2c3c(cccc3c1)CC2
Result :: 0.216
